Each entry below carries its reported Inhibition.
- System: Plasmodium falciparum
- Test Summary: GSK_TCMDC: Inhibition of Plasmodium falciparum Dd2 in whole red blood cells, using parasite LDH activity as an index of growth. Test compounds present at 2uM
- Format: functional
Report the figure in % without appending any unit label.

COc1cc2nc(NCC3CCN(c4nc(N)c5cc(OC)c(OC)cc5n4)CC3)nc(N)c2cc1OC
73
O=C(Nc1cccc(CN2CCN(C(=O)c3ccccc3)CC2)c1)c1cccs1.O=C(O)C(F)(F)F
97
COc1ccc(-c2ccc(NC(=O)c3ccc(C#N)cc3)cc2)cc1CN1CCN(C)CC1.O=C(O)C(F)(F)F
49
CN(C)C(=O)CC(=O)NCc1c(Cl)cccc1Cl
2

**Query** Value lookup for Inhibition; key = CN1CCc2ccc(NC(=O)Nc3cccc(C(=O)c4ccccc4)c3)cc2C1
**Result** 16

**Query** Could you tell me which Inhibition is on file for CN(C)CCOc1ccc(-c2cc(-c3ccnc(N)n3)c(-c3ccc(Cl)c(O)c3)o2)cc1 ?
**Result** 91

**Query** Dear colleague, I am looking for the recorded Inhibition of the following compound: CCOc1cc(C)c(C2CCN(CCCCNC(=O)c3ccc(NC(=O)c4ccc(Cl)cc4)cc3)CC2)cc1C
**Result** 87

**Query** Endpoint output: Inhibition of Cc1ccc(-c2cccc3c(NC(=O)Nc4ccc5nccc(N6CCN(C)CC6)c5c4)cccc23)cn1.Cl . Value?
**Result** 89

**Query** Look up Inhibition: COc1cccc(-c2cnc(N)c(-c3nc4ccc(F)cc4[nH]3)c2)c1.Cl
**Result** 43

* * *

Entries and their measured Inhibition follow.
- Tested on: Plasmodium falciparum
- Test Summary: GSK_TCMDC: Inhibition of Plasmodium falciparum 3D7 in whole red blood cells, using parasite LDH activity as an index of growth. Test compounds present at 2uM
- Type: functional
Field format: number, assumed %, no unit text.

Answered cases to consult:
COc1ccc(N2CCN(CCCN3CCN(C(=O)c4ccc(/C=C/c5ccc(Cl)c(Cl)c5)cc4)CC3)CC2)c(OC)c1.O=C(O)/C=C/C(=O)O
93
COc1ccc(C2CCN(CCN3CCC(NC(=O)c4ccc(-c5cccc(C(F)(F)F)c5C(F)(F)F)cc4)CC3)CC2)c(OC)c1
100
CCN(CC)CCN(Cc1ccc(-c2ccc(C(F)(F)F)cc2)nc1)C(=O)Cn1cc(Cc2cnn(C)c2)c(=O)n2nc(-c3ccccc3)cc12.O=C(O)C(O)C(O)C(=O)O
97
CC(C)Cc1csc(NC(=O)C=Cc2ccco2)c1C(=O)O
82
Br.Cc1ccc2ccccc2c1CCCON1C(=N)N=C(N)NC1(C)C
95
Cc1cc(=NN=Cc2cccc(Cl)c2)c2cc(F)ccc2[nH]1
100
CC(C)(C(=O)NCCC1CCN(CCCCCNC(=O)/C=C/c2ccc(Cl)c(Cl)c2)CC1)c1ccc(Cl)cc1
89
COc1cccc(NC(=O)COc2ccc(C(=O)Nc3nc4ccccc4[nH]3)cc2)c1
99

**Query** // Inhibition lookup, key: COc1ccc2[nH]c(C)cc(=NN=Cc3cccc(Cl)c3)c2c1
**Result** 100

* * *

- Test system: HepG2
- Test Summary: GSK_TCMDC: Percent inhibition of human HepG2 cell line. Test compounds present at 10uM.
- Type: functional
Each entry below carries its recorded Inhibition.
Entry rule: numbers only, all in %.

Example cases with answers are listed next.
Cn1nc(C(F)(F)F)c(-c2ccc(F)cc2)c1NC(=O)Nc1ccccc1
3
Fc1ccc2[nH]c(-c3ccc(-c4ccc(CN5CCC(CCN6CCCCC6)CC5)cc4)s3)nc2c1.O=C(O)C(F)(F)F
96
COc1ccc2ncc(Cl)c(CCN3C[C@H](CNCc4ccc5c(n4)NC(=O)CS5)[C@H](O)C3)c2n1.Cl
2

**Query** Inhibition for COc1ccc(-c2cnc3[nH]cc(-c4ccc(CCC(=O)O)cc4)c3c2)cn1.O=C(O)C(F)(F)F ?
**Result** 25

Data provenance: ChEMBL document CHEMBL1157539
